Biological target: human SSTR2 (Homo sapiens (Human))
Sequence (P30874 whole entry): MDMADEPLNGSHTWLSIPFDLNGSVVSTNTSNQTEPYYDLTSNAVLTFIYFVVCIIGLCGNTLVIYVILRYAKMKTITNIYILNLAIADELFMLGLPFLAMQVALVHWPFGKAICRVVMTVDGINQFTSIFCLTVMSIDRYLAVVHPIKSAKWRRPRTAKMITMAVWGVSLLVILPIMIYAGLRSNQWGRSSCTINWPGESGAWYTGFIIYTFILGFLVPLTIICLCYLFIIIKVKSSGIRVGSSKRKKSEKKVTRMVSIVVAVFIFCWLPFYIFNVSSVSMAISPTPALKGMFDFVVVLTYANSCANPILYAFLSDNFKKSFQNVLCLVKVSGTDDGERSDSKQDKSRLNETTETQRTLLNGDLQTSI
Assay: Human SSTR2 intracellular cAMP functional assay for agonists (HTRF)
Type: cell-based
Conditions: CHO-K1 cells stably expressing human SSTR2; NKH477-stimulated cAMP; read-out: EC50 (inhibition of cAMP activities via human SST2R)
# Lookup of reported EC50 keyed by entry
measured attribute: EC50

| molecule | reading |
| --- | --- |
| Cc1cc(F)cc(-c2cnc3ccc(-c4cc(F)cc(C#N)c4O)cc3c2N2CC(CNC(C)C)C2)c1 | < 0.01 µM |
| COC(=O)[C@@H]1CN(c2c(-c3cc(F)cc(F)c3)cnc3ccc(-c4cccc(C#N)c4O)cc23)CC[C@H]1N (relative stereo) | < 0.01 µM |
| Cc1cc(F)cc(-c2cnc3ccc(-c4cc(F)cc(C#N)c4O)cc3c2N2CC(CN)C2)c1 | 0.01 to 0.1 µM |
| Cc1cc(F)cc(-c2nnc3ccc(-c4cccc(C#N)c4O)cc3c2N2CCC(N)CC2)c1 | < 0.01 µM |
| NC1CCN(c2c(-c3cc(F)cc(F)c3)cnc3ccc(-c4cccc(C=NO)n4)cc23)CC1 | < 0.01 µM |
| CONC(=O)Nc1ccc(C#N)cc1-c1ccc2ncc(-c3cc(F)cc(F)c3)c(N3CCC(N)CC3)c2c1 | < 0.01 µM |
| Cc1cc(F)cc(-c2cnc3ccc(-c4nccc(C#N)c4N)cc3c2N2CC(C3COCCN3)C2)c1 (centres unmarked) | < 0.01 µM |
| Cc1cc(Cl)cc(-c2nnc3ccc(-c4cccc(C#N)c4O)cc3c2N2CCC(N)CC2)c1 | < 0.01 µM |
| NC1CCN(c2c(-c3cc(F)cc(F)c3)cnc3ccc(-c4c(O)c(Br)cc(F)c4F)cc23)CC1 | < 0.01 µM |
| COc1cc(F)cc(-c2cnc3ccc(-c4cccc(F)c4C=NO)cc3c2N2CCC(N)CC2)c1 | < 0.01 µM |
| CCNCC1CN(c2c(-c3cc(C)cc(F)c3)cnc3ccc(-c4c(C)ccc(F)c4O)cc23)C1 | < 0.01 µM |
| CON=Cc1cc(F)cc(-c2ccc3ncc(-c4cc(C)cc(F)c4)c(N4CCC(N)CC4)c3c2)c1O | < 0.01 µM |
| Cc1cc(F)cc(-c2cnc3ccc(-c4cc(F)cnc4N)cc3c2N2CCC(N)CC2)c1 | < 0.01 µM |
| CON(C)C(=O)Nc1c(C#N)cc(F)c(F)c1-c1ccc2ncc(-c3cc(F)cc(F)c3)c(N3CCC(N)CC3)c2c1 | < 0.01 µM |
| Cc1cc(F)cc(-c2cnc3ccc(-c4cc(F)cc(C#N)c4O)cc3c2N2CC(CN3CC[C@H](F)C3)C2)c1 | < 0.01 µM |
| CN(C)C(=O)[C@@H]1CN(c2c(-c3cc(F)cc(F)c3)cnc3ccc(-c4cccc(C#N)c4O)cc23)CC[C@H]1N (relative stereo) | 0.1 to 1 µM |
| Cc1cc(F)cc(-c2cnc3ncc(-c4cc(F)cc(C#N)c4O)cc3c2N2CCC(N)CC2)c1 | < 0.01 µM |
| Nc1c(-c2ccc3ncc(-c4cc(F)cc(F)c4)c(N4CC[C@H]5NCCO[C@@H]5C4)c3c2)cnn1C1COC1 (relative stereo) | 0.01 to 0.1 µM |
| CONC(=O)Nc1c(Cl)cncc1-c1ccc2ncc(-c3cc(C)cc(F)c3)c(N3CCC(N)CC3)c2c1 | < 0.01 µM |
| NC1CCN(c2c(-c3cc(F)cc(F)c3)cnc3ccc(-c4cccnc4C=NO)cc23)CC1 | < 0.01 µM |
| Oc1c(F)cncc1-c1ccc2ncc(-c3cc(F)cc(F)c3)c(N3CC[C@H]4NCCO[C@@H]4C3)c2c1 (relative stereo) | 0.01 to 0.1 µM |
| COCCOc1c(C#N)cc(F)cc1-c1ccc2ncc(-c3cc(C)cc(F)c3)c(N3CC[C@H](N)[C@H](O)C3)c2c1 (relative stereo) | < 0.01 µM |
| N#Cc1ccnc(-c2ccc3ncc(-c4cc(F)cc(F)c4)c(N4CC[C@H]5NCCO[C@@H]5C4)c3c2)c1F (relative stereo) | 0.01 to 0.1 µM |
| Nc1cc(F)cnc1-c1ccc2ncc(-c3cc(F)cc(F)c3)c(N3CC[C@H]4NCCO[C@@H]4C3)c2c1 (relative stereo) | < 0.01 µM |
| COC(=O)Nc1c(C#N)cccc1-c1ccc2ncc(-c3cc(F)cc(OC)c3)c(N3CCC(N)CC3)c2c1 | < 0.01 µM |
| Cc1cc(F)cc(-c2cnc3ccc(-c4cc(F)cc(C#N)c4O)cc3c2N2CC[C@H](N)[C@H](O)C2)c1 (relative stereo) | < 0.01 µM |
| Cc1cc(F)cc(-c2cnc3ccc(-c4cncc(Cl)c4N)cc3c2N2CCC(N)CC2)c1 | < 0.01 µM |
| Cc1cc(F)cc(-c2cnc3ccc(-c4cc(F)cc(C#N)c4O)cc3c2N2CC(CN3CCCC3)C2)c1 | < 0.01 µM |
| COCOc1c(C#N)cccc1-c1ccc2ncc(-c3cc(F)cc(F)c3)c(N3CC[C@H](N)[C@H](O)C3)c2c1 (relative stereo) | < 0.01 µM |

The values you see were collected from patent US10351547B2.
